# Test system: Staphylococcus aureus MS-8710
# experiment: antimicrobial activity, broth dilution method
# Type: cell-based
# setup conditions: Staphylococcus aureus, MS8710, Staphylococcus aureus MS-8710, drug-resistant clinical isolate; read-out: minimum inhibitory concentration (MIC)
observable: MIC (µg/mL)

| compound | readout relation | quantitative readout |
| --- | --- | --- |
| CCC1OC(=O)CC(O)C(C)C(OC2OC(C)C(OC3CC(C)(O)C(OC(=O)C(C)Oc4ccccc4)C(C)O3)C(N(C)C)C2O)C(CC=O)CC(C)C(=O)C=CC(C)=CC1COC1OC(C)C(O)C(OC)C1OC (stereo not drawn) | = | 25 |
| CCC1OC(=O)CC(O)C(C)C(OC2OC(C)C(OC3CC(C)(O)C(OC(=O)Cc4cccc5ccccc45)C(C)O3)C(N(C)C)C2O)C(CC=O)CC(C)C(=O)C=CC(C)=CC1COC1OC(C)C(O)C(OC)C1OC (stereo not drawn) | = | 12.5 |
| CCC1OC(=O)CC(O)C(C)C(OC2OC(C)C(OC3CC(C)(O)C(O)C(C)O3)C(N(C)C)C2OC(C)=O)C(CC=O)CC(C)C(=O)C=CC(C)=CC1COC1OC(C)C(OC(=O)COc2ccccc2)C(OC)C1OC (stereo not drawn) | = | 100 |
| CCC1OC(=O)CC(O)C(C)C(OC2OC(C)C(OC3CC(C)(O)C(OC(=O)CCC(C)C)C(C)O3)C(N(C)C)C2O)C(CC=O)CC(C)C(=O)C=CC(C)=CC1COC1OC(C)C(O)C(OC)C1OC (stereo not drawn) | = | 12.5 |
| CCC1OC(=O)CC(OC(C)=O)C(C)C(OC2OC(C)C(OC3CC(C)(O)C(O)C(C)O3)C(N(C)C)C2OC(C)=O)C(CC=O)CC(C)C(=O)C=CC(C)=CC1COC1OC(C)C(O)C(OC)C1OC (stereo not drawn) [3,2'-diacetyltylosin, reference compound] | > | 200 |
| CCC(C(=O)OC1C(C)OC(OC2C(C)OC(OC3C(CC=O)CC(C)C(=O)C=CC(C)=CC(COC4OC(C)C(O)C(OC)C4OC)C(CC)OC(=O)CC(O)C3C)C(O)C2N(C)C)CC1(C)O)c1ccccc1 (stereo not drawn) | = | 12.5 |
| CCC(CC)C(=O)OC1C(C)OC(OC2C(C)OC(OC3C(CC=O)CC(C)C(=O)C=CC(C)=CC(COC4OC(C)C(O)C(OC)C4OC)C(CC)OC(=O)CC(OC(C)=O)C3C)C(O)C2N(C)C)CC1(C)O (stereo not drawn) | = | 25 |
| CCC1OC(=O)CC(OC(C)=O)C(C)C(OC2OC(C)C(OC3CC(C)(O)C(OC(=O)Cc4cccc5ccccc45)C(C)O3)C(N(C)C)C2O)C(CC=O)CC(C)C(=O)C=CC(C)=CC1COC1OC(C)C(O)C(OC)C1OC (stereo not drawn) | = | 25 |
| CCCC(C)C(=O)OC1C(C)OC(OC2C(C)OC(OC3C(CC=O)CC(C)C(=O)C=CC(C)=CC(COC4OC(C)C(O)C(OC)C4OC)C(CC)OC(=O)CC(O)C3C)C(O)C2N(C)C)CC1(C)O (stereo not drawn) | = | 25 |
| CCC1OC(=O)CC(O)C(C)C(OC2OC(C)C(OC3CC(C)(O)C(OC(=O)CSC4CCCCC4)C(C)O3)C(N(C)C)C2O)C(CC=O)CC(C)C(=O)C=CC(C)=CC1COC1OC(C)C(O)C(OC)C1OC (stereo not drawn) | = | 12.5 |
| CCC1OC(=O)CC(O)C(C)C(OC2OC(C)C(OC3CC(C)(O)C(O)C(C)O3)C(N(C)C)C2OC(C)=O)C(CC=O)CC(C)C(=O)C=CC(C)=CC1COC1OC(C)C(OC(=O)C(Cl)(Cl)Cl)C(OC)C1OC (stereo not drawn) | = | 200 |
| CCC1OC(=O)CC(O)C(C)C(OC2OC(C)C(OC3CC(C)(O)C(OC(=O)CSc4cccc(C)c4)C(C)O3)C(N(C)C)C2O)C(CC=O)CC(C)C(=O)C=CC(C)=CC1COC1OC(C)C(O)C(OC)C1OC (stereo not drawn) | = | 25 |
| CCC1OC(=O)CC(O)C(C)C(OC2OC(C)C(OC3CC(C)(O)C(O)C(C)O3)C(N(C)C)C2OC(=O)CCl)C(CC=O)CC(C)C(=O)C=CC(C)=CC1COC1OC(C)C(O)C(OC)C1OC (stereo not drawn) [2'-monochloroacetyltylosin, reference compound] | > | 200 |
| CCOC(=O)OC1C(C)OC(OCC2C=C(C)C=CC(=O)C(C)CC(CC=O)C(OC3OC(C)C(OC4CC(C)(O)C(O)C(C)O4)C(N(C)C)C3OC(C)=O)C(C)C(OC(C)=O)CC(=O)OC2CC)C(OC)C1OC (stereo not drawn) | = | 100 |
| CCC1OC(=O)CC(O)C(C)C(OC2OC(C)C(OC3CC(C)(O)C(O)C(C)O3)C(N(C)C)C2OC(C)=O)C(CC=O)CC(C)C(=O)C=CC(C)=CC1COC1OC(C)C(OC(=O)CCl)C(OC)C1OC (stereo not drawn) | > | 200 |
